Entries annotated with measured viability, T/C
# Test system: 996289-038-R-J1-PDC complex spheroid viability
# assayNotes: Anticancer human tumor 996289-038-R-J1-PDC patient-derived colon adenocarcinoma cell line growth inhibition [CLK]
# details: second compound 10 µM; first compound 0.0316 µM; active compounds read low

compound | observationType | result
C#Cc1c(F)ccc2cc(O)cc(-c3ncc4c(N5CC6CCC(C5)N6)nc(OCC56CCCN5CC(F)C6)nc4c3F)c12 (stereo not drawn) + CN1CCN(c2cc(C(=O)Nc3cc4cc(-c5cnn(C)c5)ccc4cn3)ccn2)CC1 | viability, T/C | 0.72%

input: Give the reported value of viability, T/C for this record: COc1cccc2c1C(=O)c1c(O)c3c(c(O)c1C2=O)CC(O)(C(=O)CO)CC3OC1CC(N)C(O)C(C)O1 (stereo not drawn) + CN1CCN(c2cc(C(=O)Nc3cc4cc(-c5cnn(C)c5)ccc4cn3)ccn2)CC1
output: 1.39%

input: Give the reported value of viability, T/C for this record: C=CC(=O)N1CCN(c2nc(=O)n(-c3c(C)ccnc3C(C)C)c3nc(-c4c(O)cccc4F)c(F)cc23)C(C)C1 (stereo not drawn) + CNC(=O)c1ccc(Nc2nc(OC3CCCC3)c3c(-c4ccc5nc(C)oc5c4)c[nH]c3n2)c(OC)c1
output: 58.7%

* * *

# Tested on: 996289-038-R-J1-PDC complex spheroid viability
# assayNotes: Anticancer human tumor 996289-038-R-J1-PDC cell line growth inhibition [CLK];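 further: spheroids exposed to the agents for 7 days before readout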
# details: second compound 3.16 µM; first compound 3.16 µM; active compounds read low
observationType: viability, T/C (%)
Record the value in %, omitting the unit from your answer.

compound | viability, T/C, %
CC(=O)O[C@H]1C(=O)[C@@]2(C)[C@H]([C@H](OC(=O)c3ccccc3)[C@]3(O)C[C@H](OC(=O)[C@H](O)[C@@H](NC(=O)c4ccccc4)c4ccccc4)C(C)=C1C3(C)C)[C@]1(OC(C)=O)CO[C@@H]1C[C@@H]2O + CNC(=O)c1ccc(Nc2nc(OC3CCCC3)c3c(-c4ccc5nc(C)oc5c4)c[nH]c3n2)c(OC)c1 | 59

Please turn your attention to the following entry.
input: Give the reported value of viability, T/C for this record: O=C(c1cc(Cc2n[nH]c(=O)c3ccccc23)ccc1F)N1CCN(C(=O)C2CC2)CC1 + CN1CCN(c2cc(C(=O)Nc3cc4cc(-c5cnn(C)c5)ccc4cn3)ccn2)CC1
output: 0.92

* * *

# Tested on: 996289-038-R-J1-PDC complex spheroid viability
# assayNotes: Anticancer human tumor 996289-038-R-J1-PDC cell line growth inhibition [CLK];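 further: spheroids exposed to the agents for 7 days before readout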
# details: second compound 3.16 µM; first compound 0.316 µM; active compounds read low
viability, T/C under 50% gets Yes, anything at or over 50% gets No.

These recorded examples may help you get a feel for the data.
molecule | qualitativeLabel
CCCS(=O)(=O)Nc1ccc(F)c(C(=O)c2c[nH]c3ncc(-c4ccc(Cl)cc4)cc23)c1F + CN1CCN(c2cc(C(=O)Nc3cc4cc(-c5cnn(C)c5)ccc4cn3)ccn2)CC1 | Yes
CCc1c2c(nc3ccc(O)cc13)-c1cc3c(c(=O)n1C2)COC(=O)[C@]3(O)CC + CNC(=O)c1ccc(Nc2nc(OC3CCCC3)c3c(-c4ccc5nc(C)oc5c4)c[nH]c3n2)c(OC)c1 | Yes
C=CC(=O)N1CCN(c2nc(=O)n(-c3c(C)ccnc3C(C)C)c3nc(-c4c(O)cccc4F)c(F)cc23)C(C)C1 (stereo unspecified) + CNC(=O)c1ccc(Nc2nc(OC3CCCC3)c3c(-c4ccc5nc(C)oc5c4)c[nH]c3n2)c(OC)c1 | No
COC1C=CCC(C)C(C)S(=O)(=O)NC(=O)c2ccc3c(c2)N(CC2CCC21)CC1(CCCc2cc(Cl)ccc21)CO3 (stereo unspecified) + CNC(=O)c1ccc(Nc2nc(OC3CCCC3)c3c(-c4ccc5nc(C)oc5c4)c[nH]c3n2)c(OC)c1 | No
O=C(c1cc(Cc2n[nH]c(=O)c3ccccc23)ccc1F)N1CCN(C(=O)C2CC2)CC1 + CNC(=O)c1ccc(Nc2nc(OC3CCCC3)c3c(-c4ccc5nc(C)oc5c4)c[nH]c3n2)c(OC)c1 | No

input: is_below(viability, T/C, 50%) for Nc1ccn(C2OC(CO)C(O)C2(F)F)c(=O)n1 (stereo unspecified) + CNC(=O)c1ccc(Nc2nc(OC3CCCC3)c3c(-c4ccc5nc(C)oc5c4)c[nH]c3n2)c(OC)c1 ?
output: No

input: is_below(viability, T/C, 50%) for Nc1ccccc1NC(=O)c1ccc(CNC(=O)OCc2cccnc2)cc1 + CN1CCN(c2cc(C(=O)Nc3cc4cc(-c5cnn(C)c5)ccc4cn3)ccn2)CC1 ?
output: Yes

input: is_below(viability, T/C, 50%) for CC(CO)NC(=O)c1cc(-c2ccc(Cl)cc2)nn(-c2cnn(C)c2)c1=O (stereo unspecified) + CNC(=O)c1ccc(Nc2nc(OC3CCCC3)c3c(-c4ccc5nc(C)oc5c4)c[nH]c3n2)c(OC)c1 ?
output: No

input: is_below(viability, T/C, 50%) for CCCS(=O)(=O)Nc1ccc(F)c(C(=O)c2c[nH]c3ncc(-c4ccc(Cl)cc4)cc23)c1F + CNC(=O)c1ccc(Nc2nc(OC3CCCC3)c3c(-c4ccc5nc(C)oc5c4)c[nH]c3n2)c(OC)c1 ?
output: No

input: is_below(viability, T/C, 50%) for CC(Nc1ccc2c(c1)OCCn1cc(N3C(=O)OCC3C(F)F)nc1-2)C(N)=O (stereo unspecified) + CNC(=O)c1ccc(Nc2nc(OC3CCCC3)c3c(-c4ccc5nc(C)oc5c4)c[nH]c3n2)c(OC)c1 ?
output: Yes

input: is_below(viability, T/C, 50%) for COc1cccc2c1C(=O)c1c(O)c3c(c(O)c1C2=O)CC(O)(C(=O)CO)CC3OC1CC(N)C(O)C(C)O1 (stereo unspecified) + CNC(=O)c1ccc(Nc2nc(OC3CCCC3)c3c(-c4ccc5nc(C)oc5c4)c[nH]c3n2)c(OC)c1 ?
output: Yes
